Cytochrome P450 2C19 (Homo sapiens, UniProt P33261) pIC50 data
Sequence (P33261 whole entry): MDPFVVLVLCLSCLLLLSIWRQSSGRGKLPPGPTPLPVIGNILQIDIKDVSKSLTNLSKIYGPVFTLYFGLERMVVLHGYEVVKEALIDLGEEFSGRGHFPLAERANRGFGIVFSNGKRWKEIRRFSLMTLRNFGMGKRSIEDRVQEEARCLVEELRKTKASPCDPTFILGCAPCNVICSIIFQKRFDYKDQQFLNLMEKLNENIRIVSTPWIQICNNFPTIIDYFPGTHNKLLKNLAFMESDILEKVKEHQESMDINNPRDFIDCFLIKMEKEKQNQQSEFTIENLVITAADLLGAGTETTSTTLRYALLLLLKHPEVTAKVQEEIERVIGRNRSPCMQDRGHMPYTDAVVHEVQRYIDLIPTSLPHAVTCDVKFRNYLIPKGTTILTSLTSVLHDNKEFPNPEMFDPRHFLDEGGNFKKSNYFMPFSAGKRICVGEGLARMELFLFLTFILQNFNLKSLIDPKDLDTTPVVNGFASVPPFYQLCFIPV
One number for each entry, as −log10 of the molar value.

[
  {
    "chemical.string": "COc1ccc2c(c1)/C(=C\\c1ccc3c(/C=C/c4ccc(N5CCN(C)CC5)nc4)n[nH]c3c1)C(=O)N2",
    "data.value": 5.80
  }
]

--- query ---
Query block: Using the record for CN1CCN(c2ccc(/C=C/c3n[nH]c4cc(/C=C5/C(=O)Nc6ccccc65)ccc34)cn2)CC1 , report its pIC50.
Result block: 6.36
